Below, each entry is listed alongside its reported GI50.
system: BT-549 breast; experiment: NCI tumour cell line growth inhibition, 48 h

{"columns": ["Line Notation", "GI50"],
 "data": [
  ["CCCC(=O)O[C@]1(C)CC[C@@H]2[C@H]3[C@@H]1[C@@H]1C/C(C)=C\\CC[C@](C)(OC(=O)[C@@H]2C)[C@H]3O1", "61.9 µM"],
  ["Cn1ccc2c3c(=O)cc[nH]c3ccc21", "> 100 µM"],
  ["Cc1cc(S(=O)(=O)Nc2nc3ccccc3[nH]2)c(SCc2ccccc2)cc1Cl", "> 100 µM"],
  ["CCCC(CCC)Oc1ccc(CCCC2=C(O)c3ccccc3C(=O)C2=O)cc1", "8.74 µM"],
  ["Clc1ccc(-c2nc(C(Cl)Cl)nc3cc(-c4ccccc4)nn23)cc1", "> 50 µM"],
  ["OCC#CCCCCOCC#Cc1ccccc1C#CCOCCCCC#CCO", "16.8 µM"]
]}

----------
tested on: SK-MEL-28 melanoma; assay: NCI tumour cell line growth inhibition, 48 h

{"columns": ["Compound", "TGI"],
 "data": [
  ["CC(=O)c1sc2n(C)c(=O)c3ccccc3[n+]2c1C", "> 100 µM"],
  ["OCC#CCCCCOCC#Cc1ccccc1C#CCOCCCCC#CCO", "51.6 µM"],
  ["[O-]/[N+](=N/c1ncc(-c2ccccc2)cn1)c1ncc(-c2ccccc2)cn1", "> 100 µM"],
  ["Cn1nc(S(N)(=O)=O)s/c1=N/S(=O)(=O)c1ccc(N)cc1", "> 100 µM"],
  ["O=C(O)c1nnsc1-c1csnn1", "> 100 µM"],
  ["C[n+]1cc2cc3c(cc2c2ccccc21)OCO3", "14.3 µM"],
  ["COc1ccc(OC2OC(CO)C(O)C(O)C2O)cc1 (stereo not given)", "> 100 µM"],
  ["Cc1ccc(C2=Nn3c(nc4sc5c(c4c3=O)CCCC5)SC2)cc1", "> 100 µM"],
  ["Nc1ccc(S(=O)(=O)NCCS(=O)(=O)O)cc1", "> 100 µM"],
  ["CNC(=O)/C(=C/c1ccc(OC)cc1)c1cc(OC)c(OC)c(OC)c1", "> 100 µM"],
  ["O=C1[C@@H]2C(c3ccncc3)=NO[C@@H]2C(=O)N1c1ccc(Cc2ccc(N3C(=O)[C@H]4C(c5ccncc5)=NO[C@H]4C3=O)cc2)cc1", "> 100 µM"],
  ["COc1cccc2c1C(=O)c1c(O)c3c(c(O)c1C2=O)C[C@@](O)(C(C)=O)C[C@@H]3OC1CC(O)C(O)C(C)O1 (stereo not given in full)", "25 µM"],
  ["C=CC[C@@]12CCC(=O)C=C1CCCC2=O", "> 100 µM"],
  ["COC(=O)C1=CO[C@@H](OC2OC(CO)C(O)C(O)C2O)[C@@H]2[C@H](C)[C@@H](O)[C@@H](O)[C@]12O (stereo not given in full)", "> 100 µM"],
  ["CC(C)(C)c1cc(-c2c3nc(c(-c4cc(C(C)(C)C)cc(C(C)(C)C)c4)c4ccc([nH]4)c(-c4cc(C(C)(C)C)cc(C(C)(C)C)c4)c4nc(c(-c5cc(C(C)(C)C)cc(C(C)(C)C)c5)c5ccc2[nH]5)C=C4)C=C3)cc(C(C)(C)C)c1", "> 100 µM"],
  ["CCOC(=O)C(O)Cc1cnc2ccccc2n1 (stereo not given)", "> 100 µM"],
  ["O=C(Nc1nc(-c2ccccc2)cs1)c1cc(O)c(O)c(O)c1", "60.8 µM"],
  ["Oc1ccc2ccccc2c1NCn1nc(CCCCCCCCc2nn(CNc3c(O)ccc4ccccc34)c(=S)o2)oc1=S", "> 100 µM"],
  ["CC1(Cc2cc3c(cc2C2(c4ccc([N+](=O)[O-])cc4)OCCO2)OCO3)OCCO1", "> 100 µM"],
  ["Cc1cc(Cl)ccc1N1C(=O)C(=O)C(c2nc3ccccc3o2)C(=O)C1=O", "> 100 µM"]
]}

----------
Below, each entry is listed alongside its reported TGI.
tested on: DU-145 prostate; assay: NCI tumour cell line growth inhibition, 48 h

{"columns": ["Compound", "TGI"],
 "data": [
  ["O=C1CC2(CCNCC2)C(=O)N1N1CCCCC1", "> 100 µM"],
  ["CC1=NN(C(=O)CC(=O)Nc2ccc(Cl)cc2)C(=O)C1N=Nc1ccc(S(=O)(=O)c2ccc(N=NC3C(=O)N(C(=O)CC(=O)Nc4ccc(Cl)cc4)N=C3C)cc2)cc1 (stereo unspecified)", "> 100 µM"],
  ["O=C(O)c1cc2cc(O)ccc2[nH]1", "> 100 µM"],
  ["COC1C(O)CC(OC2CC(OC3CC(O[C@@H]4C(=O)c5c(cc6cc(OC7CC(OC8CC(O)C(O)C(C)O8)C(O)C(C)O7)c(C)c(O)c6c5O)C[C@H]4[C@H](OC)C(=O)[C@@H](O)[C@@H](C)O)OC(C)C3O)OC(C)C2O)OC1C (stereo partly specified)", "0.281 µM"],
  ["COc1cc(/C=C2\\CC(C)C/C(=C\\c3ccc(O)c(OC)c3)C2=O)ccc1O (stereo unspecified)", "12.7 µM"],
  ["CCOC(=O)C(C)c1nc2cc(C(F)(F)F)ccc2[nH]c1=O (stereo unspecified)", "> 100 µM"],
  ["C/C(=C1/N=C(c2ccccc2)OC1=O)c1ccccc1", "> 100 µM"],
  ["COc1cc(O)c2c(=O)c(OC)c(-c3ccc(OC)c(OC)c3)oc2c1.[Zn+2]", "> 100 µM"],
  ["O=C(/C=C/c1ccc(O)cc1)c1cc(-c2cc(CCC(=O)c3ccc(O)cc3O)ccc2O)c(O)cc1O", "> 50 µM"],
  ["CN(C)CCN=C1Nc2ccccc2C(=O)N2CSCC12 (stereo unspecified)", "> 100 µM"],
  ["COC(=O)C1Cc2c([nH]c3ccccc23)-c2[nH]c3ccccc3c2CC(NC(C)=O)C(=O)NCC(=O)NCC(=O)N1 (stereo unspecified)", "> 100 µM"],
  ["Cc1ccc(C2=Nn3c(nc4sc5c(c4c3=O)CCCC5)SC2)cc1", "> 100 µM"],
  ["COc1ccc(C(c2cc(OC)c(OC)c(OC)c2)N2C(=O)CCC2C(=O)O)cc1 (stereo unspecified)", "> 100 µM"],
  ["O=C(c1ccccc1)c1ccc(O)c2ncccc12", "27.6 µM"],
  ["COc1ccc(OC)c([N+](=O)[O-])c1-c1nc2sc(C)c(C)n2c1/C=N/N=C(N)N", "> 100 µM"],
  ["Cc1[nH]c(=O)nc(N/N=C/c2ccc(Cl)cc2)c1C(=O)Nc1ccc(Cl)cc1", "> 100 µM"],
  ["CCCC(CCC)Oc1ccc(CCCC2=C(O)c3ccccc3C(=O)C2=O)cc1", "19 µM"],
  ["CCOc1ccc(NC(=O)c2cc3ccccc3cc2O)cc1", "> 100 µM"],
  ["Cn1c(-c2cccs2)cc(-c2ccsc2)c1-c1cccs1", "> 100 µM"],
  ["Nc1ccc(S(=O)(=O)NCCS(=O)(=O)O)cc1", "> 100 µM"],
  ["Nc1cc(N)cc(Cc2ccccc2)c1", "> 100 µM"]
]}

----------
Below, each entry is listed alongside its reported TGI.
system: HCC-2998 colon; test: NCI tumour cell line growth inhibition, 48 h
Value Type: TGI

{"columns": ["Molecule", "Value Type", "Reported Value"],
 "data": [
  ["Cc1ccccc1NC(=O)C(=O)CC(=O)C1CCOC1=O (stereo unspecified)", "TGI", "> 100 µM"],
  ["CN(N=O)C(=O)Nc1ccc(C(=O)O)cc1", "TGI", "> 100 µM"],
  ["O=C(Nc1nc(-c2ccccc2)cs1)c1cc(O)c(O)c(O)c1", "TGI", "36.3 µM"],
  ["COC1=CC(=O)c2c(n[nH]c2CCNC(=O)OCc2ccccc2)C1=O", "TGI", "39.6 µM"],
  ["CCCC(CCC)Oc1ccc(CCCC2=C(O)c3ccccc3C(=O)C2=O)cc1", "TGI", "10.1 µM"],
  ["CC1(C)N([O-])[N+](=O)C1(Br)c1ccccc1 (stereo unspecified)", "TGI", "> 100 µM"],
  ["COc1ccc2c(c1)C(=O)c1c-2n(CCCN=[N+]=[N-])c(=O)c2cc(N)ccc12", "TGI", "> 100 µM"],
  ["CCC1(CC)C(=O)NN(C(=O)c2ccc(Cl)cc2)C1=O", "TGI", "> 100 µM"],
  ["N/N=C(/CC(O)(C(F)(F)F)C(F)(F)F)c1ccccc1", "TGI", "> 10 µM"],
  ["COc1cc2oc(-c3cccc(C(=O)Nc4ccc(C)cc4)c3)cc(=O)c2c(OC)c1OC", "TGI", "17.8 µM"],
  ["C/C(CC(=O)Nc1ccccc1)=N\\NC(N)=S", "TGI", "> 100 µM"]
]}
